- Test system: platelet aggregation induced by AA, PAF or collagen
- method-notes: in vitro platelet aggregation in human platelet rich plasma
- Assay type: cell-based
- condition-parameters: human PRP, aggregation agent AA, read-out: IC50 ± SEM, platelet aggregation induced by AA
- Description: Blood was drawn by vein puncture from healthy human volunteers reported to be free of medications for at least one week. […] The platelet count was determined by phase contrast microscopy and all aggregation studies were carried out at 37° C. with PRP having platelet counts between 2.5 and 3.0×10^8/ml of plasma. […] Platelet aggregation was monitored using a Dual-channel Lumi-aggregometer (Model 400 Chronolog Corporation, Chicago, USA) using 0.45 ml aliquots of PRP. […]
readout-type: IC50 (µM)
Write the number in µM without appending the unit.

Request: Reported IC50, compound CC(=O)Nc1ccc(O)cc1 [Paracetamol, 4-hydroxyacetanilide] : ____
Response: 136
